These data points were gathered from paper PMC8942523.

// endpoint log10(Ki) / system UniProtKB Q16790
Heads up: the numbers are on a log10 scale; they represent Ki in nM.

In [3]: df
Out[3]:
                                   compound  target_or_system  readout_number
0  NS(=O)(=O)c1ccc(CCN(Cc2ccccc2)C(=O)CN(Cc2ccccc2)Cc2ccccc2)cc1 [compound 20, 20]  UniProtKB Q16790            2.37
1  NCCCN(CCc1ccccc1)CC(=O)N(CCc1ccc(S(N)(=O)=O)cc1)Cc1ccc(F)cc1 [compound 42, 42]  UniProtKB Q16790            0.68
2  CCN(CCC(=O)N(CCc1ccc(S(N)(=O)=O)cc1)Cc1ccccc1)Cc1ccccc1 [compound 25, 25]  UniProtKB Q16790            2.22
3  NS(=O)(=O)c1ccc(CCN(CCc2ccccc2)C(=O)CN(CCC(=O)O)CCc2ccccc2)cc1 [compound 45, 45]  UniProtKB Q16790            0.88

Incoming: Item: N#CCCN(CCc1ccccc1)CC(=O)N(CCc1ccccc1)CCc1ccc(S(N)(=O)=O)cc1 [compound 34, 34] Test system: UniProtKB Q16790 Read-out: log10(Ki) Value: ?
Outgoing: 1.51

Incoming: Param readout= log10(Ki); system= UniProtKB Q16790; entry= NS(=O)(=O)c1ccc(CCN(Cc2ccco2)C(=O)CN(CCC(=O)O)CCc2ccccc2)cc1 [compound 46, 46] ; returns value.
Outgoing: 0.08

Incoming: Request body: readout log10(Ki), system UniProtKB Q16790, query CCCCCCN(CCCCCC)CC(=O)N(CCc1ccc(S(N)(=O)=O)cc1)Cc1ccccc1 [compound 22, 22] . Return the value.
Outgoing: 2.09

* * *

Endpoint: pKi. System: hCA IX (Homo sapiens). Items follow.
In textbook form, pKi equals minus log to base ten of the concentration in mol/L.

In [3]: df
Out[3]:
                               smiles_entry       target_or_system  readout_number
0  CCCCCCN(CCCCCC)CC(=O)N(CCC#N)CCc1ccc(S(N)(=O)=O)cc1  hCA IX (Homo sapiens)            6.81

Incoming: Record request: pKi value, item CCCCCCN(CCCCCC)CCC(=O)N(CCc1ccc(S(N)(=O)=O)cc1)Cc1ccccc1
Outgoing: 7.03

Incoming: What value of pKi has been recorded for this entry: NS(=O)(=O)c1ccc(CCN(Cc2ccc(F)cc2)C(=O)CN(CCC(=O)O)CCc2ccccc2)cc1
Outgoing: 7.95

Incoming: Reported pKi for N#CCCN(CCc1ccccc1)CC(=O)N(CCC#N)CCc1ccc(S(N)(=O)=O)cc1 : what is it?
Outgoing: 7.71

Incoming: Which value of pKi has been reported for CCCCCCN(CCCCCC)CC(=O)N(CCCN)CCc1ccc(S(N)(=O)=O)cc1 in the records?
Outgoing: 6.94

Incoming: What value of pKi has been recorded for this entry: CCCCCCCCN(CCCCCCCC)CC(=O)N(CCc1ccc(S(N)(=O)=O)cc1)Cc1ccccc1
Outgoing: 6.57
